Test system: HEK-293T
Assay: Multiplex assay against HEK293T
Type: toxicity, cell-based
Details: human, 24 h, 1 µM, compound concentration 1 uM, replicate 1
Would you mind telling me the reported Population Normal (%) of each entry?
One number for each entry, in %.

Cn1cc(-c2[nH]c3cc(NC(=O)[C@H](N)C4CCCCC4)cc4c3c2C=NNC4=O)cn1	80

Give Population Normal (%) for all compounds that follow.
1. CN1CCN(CCOc2cc(OC3CCOCC3)c3c(Nc4c(Cl)ccc5c4OCO5)ncnc3c2)CC1
2. Cc1cc(C)cc(-c2cnc3cc(Cl)c(-c4cccc(O)c4)cc3c2OCCCN)c1
3. Cc1c(-c2ccc(O)cc2)n(Cc2ccc(OCCN3CCCCCC3)cc2)c2ccc(O)cc12
4. CN1CCC[C@@H]1CCO[C@](C)(c1ccccc1)c1ccc(Cl)cc1.O=C(O)/C=C/C(=O)O [CLEMASTINE FUMARATE]
5. COc1ncc(-c2ccc3nccc(-c4ccnnc4)c3c2)cc1NS(=O)(=O)c1ccc(F)cc1F

-- reply
86
87
86
78
77

Give Population Normal (%) for all compounds that follow.
1. C=CC(=O)Nc1cc2c(Nc3ccc(F)c(Cl)c3)ncnc2cc1OCCCN1CCOCC1.Cl.Cl [CANERTINIB DIHYDROCHLORIDE]
2. CN(C)CC#Cc1ccc(OCCCc2sc(N3CCc4cccc(C(=O)Nc5nc6ccccc6s5)c4C3)nc2C(=O)O)c(F)c1

-- reply
75
85
